test system: NCI-H820 cells; experiment: Large cell panel proliferation profiling study; type: cell-based; details: NCI-H820, read-out: IC50, proliferation
experimental-endpoint: IC50

Problem: Request the reported IC50 associated with C=CC(=O)Nc1cc(Nc2nccc(-c3cn(C)c4ccccc34)n2)c(OC)cc1N(C)CCN(C)C [AZD9291]
Result: ~1000 nM

###

assay: Pharmacokinetics after oral dosing in the mouse; type: in vivo; conditions: plasma, po
experimental-endpoint: half-life

Problem: Request the reported half-life associated with `C=CC(=O)Nc1cc(Nc2nccc(-c3cn(C)c4ccccc34)n2)c(OC)cc1N(C)CCN(C)C`
Result: ~3 h

###

experiment: Preliminary clinical pharmacokinetics, AURA Phase 1; format: in vivo, human; conditions: human, plasma, po, 20 mg
experimental-endpoint: half-life

Problem: Request the reported half-life associated with `C=CC(=O)Nc1cc(Nc2nccc(-c3cn(C)c4ccccc34)n2)c(OC)cc1N(C)CCN(C)C`
Result: ≥ 50 h

###

biological target: UniProt:P00533; assay: In vitro EGFR phosphorylation assay; conditions: read-out: potency against wild-type EGFR
Sequence (P00533 25-1210): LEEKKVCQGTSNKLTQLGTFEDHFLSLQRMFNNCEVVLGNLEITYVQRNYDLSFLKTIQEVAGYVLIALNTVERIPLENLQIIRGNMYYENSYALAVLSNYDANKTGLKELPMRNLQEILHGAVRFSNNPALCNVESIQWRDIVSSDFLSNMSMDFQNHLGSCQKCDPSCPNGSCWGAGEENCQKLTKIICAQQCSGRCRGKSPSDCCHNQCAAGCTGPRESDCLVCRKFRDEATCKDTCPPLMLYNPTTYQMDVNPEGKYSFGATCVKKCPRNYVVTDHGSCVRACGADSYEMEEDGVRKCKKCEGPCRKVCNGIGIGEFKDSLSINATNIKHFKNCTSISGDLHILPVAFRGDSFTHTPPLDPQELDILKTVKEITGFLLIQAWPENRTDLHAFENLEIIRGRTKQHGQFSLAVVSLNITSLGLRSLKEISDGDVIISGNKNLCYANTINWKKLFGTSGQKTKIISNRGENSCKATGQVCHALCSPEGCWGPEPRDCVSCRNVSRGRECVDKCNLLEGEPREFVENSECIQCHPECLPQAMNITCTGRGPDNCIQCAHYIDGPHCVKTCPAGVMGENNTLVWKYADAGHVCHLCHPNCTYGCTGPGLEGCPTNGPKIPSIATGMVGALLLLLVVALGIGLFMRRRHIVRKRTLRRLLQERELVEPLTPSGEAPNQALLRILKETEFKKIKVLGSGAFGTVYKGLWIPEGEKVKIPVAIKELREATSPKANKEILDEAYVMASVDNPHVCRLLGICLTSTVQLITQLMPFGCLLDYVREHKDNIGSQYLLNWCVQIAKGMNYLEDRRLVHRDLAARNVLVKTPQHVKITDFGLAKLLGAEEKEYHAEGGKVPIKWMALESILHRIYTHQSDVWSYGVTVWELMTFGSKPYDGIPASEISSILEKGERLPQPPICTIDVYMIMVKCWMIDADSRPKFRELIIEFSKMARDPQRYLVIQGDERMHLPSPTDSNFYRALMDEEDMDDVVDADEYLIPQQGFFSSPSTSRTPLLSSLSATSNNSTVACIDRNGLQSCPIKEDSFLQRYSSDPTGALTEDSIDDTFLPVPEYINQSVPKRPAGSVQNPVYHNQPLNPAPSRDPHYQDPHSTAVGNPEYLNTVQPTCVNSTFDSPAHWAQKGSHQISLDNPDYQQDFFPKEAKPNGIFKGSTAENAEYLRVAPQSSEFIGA
experimental-endpoint: IC50 (nM)
Response body: numeric value in nM, unit text excluded.

Problem: Request the reported IC50 associated with C=CC(=O)Nc1cc(Nc2nccc(-c3c[nH]c4ccccc34)n2)c(OC)cc1N(C)CCN(C)C [AZ5104]
Result: 33
